molecular target: LRRK2(G2019S mutation, GST-LRRK2(amino acids 970-2527)) (Homo sapiens (Human), UniProt Q5S007, G2019S); assay: LRRK2 Km ATP LanthaScreen Assay; format: biochemical; conditions: Examples N1-N25
Sequence (Q5S007 970-2527 G2019S): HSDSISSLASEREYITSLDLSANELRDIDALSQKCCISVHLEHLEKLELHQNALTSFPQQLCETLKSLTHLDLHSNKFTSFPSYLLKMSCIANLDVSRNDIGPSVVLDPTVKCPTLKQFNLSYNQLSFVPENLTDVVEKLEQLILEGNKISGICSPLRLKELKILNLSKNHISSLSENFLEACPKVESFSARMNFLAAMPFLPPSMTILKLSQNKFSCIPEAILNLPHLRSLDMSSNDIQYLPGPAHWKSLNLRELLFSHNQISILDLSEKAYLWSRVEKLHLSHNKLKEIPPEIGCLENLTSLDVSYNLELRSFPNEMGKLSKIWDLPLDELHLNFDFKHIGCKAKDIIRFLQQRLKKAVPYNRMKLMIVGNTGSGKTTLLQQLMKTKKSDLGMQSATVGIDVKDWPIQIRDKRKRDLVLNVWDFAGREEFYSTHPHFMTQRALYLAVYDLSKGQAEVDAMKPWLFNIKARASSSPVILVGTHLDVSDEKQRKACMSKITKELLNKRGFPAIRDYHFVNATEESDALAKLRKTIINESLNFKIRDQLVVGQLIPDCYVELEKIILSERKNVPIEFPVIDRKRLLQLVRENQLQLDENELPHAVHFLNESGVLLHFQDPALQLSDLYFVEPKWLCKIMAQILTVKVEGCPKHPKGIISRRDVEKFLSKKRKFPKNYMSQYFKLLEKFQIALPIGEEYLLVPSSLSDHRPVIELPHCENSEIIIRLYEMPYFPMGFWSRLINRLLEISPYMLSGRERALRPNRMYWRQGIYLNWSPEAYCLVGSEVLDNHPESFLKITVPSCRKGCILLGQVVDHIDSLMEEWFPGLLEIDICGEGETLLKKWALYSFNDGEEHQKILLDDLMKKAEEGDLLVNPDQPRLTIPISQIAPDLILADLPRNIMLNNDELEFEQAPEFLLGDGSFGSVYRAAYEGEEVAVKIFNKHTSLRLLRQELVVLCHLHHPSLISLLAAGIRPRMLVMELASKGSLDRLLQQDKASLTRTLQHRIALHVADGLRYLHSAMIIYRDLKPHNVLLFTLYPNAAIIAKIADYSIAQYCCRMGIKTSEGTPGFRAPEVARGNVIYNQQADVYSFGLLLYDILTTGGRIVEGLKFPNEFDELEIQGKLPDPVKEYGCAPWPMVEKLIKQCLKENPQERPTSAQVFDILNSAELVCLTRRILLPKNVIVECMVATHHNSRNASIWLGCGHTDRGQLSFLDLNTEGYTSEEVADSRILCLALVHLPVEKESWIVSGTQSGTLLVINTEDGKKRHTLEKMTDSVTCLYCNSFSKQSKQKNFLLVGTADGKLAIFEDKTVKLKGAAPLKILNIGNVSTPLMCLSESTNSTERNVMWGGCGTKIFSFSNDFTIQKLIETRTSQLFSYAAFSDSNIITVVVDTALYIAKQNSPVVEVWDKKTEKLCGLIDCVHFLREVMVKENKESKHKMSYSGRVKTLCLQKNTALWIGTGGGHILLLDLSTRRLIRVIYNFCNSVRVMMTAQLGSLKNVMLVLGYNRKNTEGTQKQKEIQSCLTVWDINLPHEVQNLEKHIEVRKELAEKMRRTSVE
Each entry falls into one class according to its IC50; the ranges are one: < 6 nM; two: ≥ 6 nM and < 8 nM; three: ≥ 8 nM

Please classify: "CC(C)Oc1cc2c(-c3cc(N4CC[C@@H](CO)C4)ncn3)n[nH]c2cc1F"
one

Please classify: "CC(C)Oc1cc2c(-c3cc(N4CCc5oncc5C4)ncn3)n[nH]c2cc1F"
three

Please classify: "Cc1nc2c(o1)CCN(c1cc(-c3n[nH]c4cc(F)c(OC(C)C)cc34)ncn1)C2"
two

Please classify: "CC(C)Oc1cc2c(-c3cc(N4CCS(=O)(=O)CC4)ncn3)n[nH]c2cc1F"
three

Please classify: "CC(C)Oc1cc2c(-c3cc(N4C5CCC4COC5)ncn3)n[nH]c2cc1F"
three

Please classify: "CO[C@H]1CN(c2cc(-c3n[nH]c4cc(F)c(OC(C)C)cc34)ncn2)C[C@@H]1O"
two

Please classify: "CC(C)Oc1cc2c(-c3cc(N4CC[C@H](N(C)C)C4)ncn3)n[nH]c2cc1F"
two

Please classify: CC(C)Oc1cc2c(-c3cc(N4CCn5nc(C(F)(F)F)nc5C4C)ncn3)n[nH]c2cc1F (stereo not shown)
three

Please classify: "COCC(=O)N1CCN(c2cc(-c3n[nH]c4cc(F)c(OC(C)C)cc34)ncn2)CC1"
one

###

Would you kindly list percent inhibition DYRK1A for each of these compounds?
system: kinases; experiment: Kinase selectivity using Z'-LYTE or Adapta; type: biochemical; conditions: 1 μM of Example; Z-LYTE platform
Report as a plain number; the unit % is understood.

Suppose we examine the compound CC(C)Oc1ccc2[nH]nc(-c3cc(N4CCO[C@H](C)C4)ncn3)c2c1 [Example D2] ; what percent inhibition DYRK1A value has been reported?
13

Suppose we examine the compound CC(C)Oc1cc2c(-c3cc(N4CCN(C)CC4)ncn3)n[nH]c2cc1F [Example D25] ; what percent inhibition DYRK1A value has been reported?
39

Suppose we examine the compound CC(C)Oc1ccc2[nH]nc(-c3cc(N4CCN(CCF)CC4)ncn3)c2c1 [Example D15] ; what percent inhibition DYRK1A value has been reported?
30

Suppose we examine the compound CC(C)Oc1ccc2[nH]nc(-c3cc(N4CCOCC4)ncn3)c2c1 [Example D6] ; what percent inhibition DYRK1A value has been reported?
12

###

Would you kindly list pIC50 for each of these compounds?
molecular target: LRRK2(G2019S mutation, GST-LRRK2(amino acids 970-2527)) (Homo sapiens (Human), UniProt Q5S007, G2019S); test: LRRK2 Km ATP LanthaScreen Assay; format: biochemical; conditions: Km ATP (184 μM ATP solution), G2019S LRRK2, mean IC50
Keep it numeric: pIC50 is minus log10 of the concentration in mol/L.

Suppose we examine the compound CC(C)Oc1cc2c(-c3cc(N4CC5CCC(C4)O5)ncn3)n[nH]c2cc1F [Example D47] ; what pIC50 value has been reported?
7.84

Suppose we examine the compound COC[C@H](C)Oc1ccc2[nH]nc(-c3cc(N4C[C@@H](C)O[C@@H](C)C4)ncn3)c2c1 [Example H5] ; what pIC50 value has been reported?
8.77

Suppose we examine the compound CC(C)=Cc1ccc2[nH]nc(-c3cc(N4CCO[C@H](C)C4)ncn3)c2c1 [Example S1] ; what pIC50 value has been reported?
7.79

Suppose we examine the compound CC(C)Oc1ccc2[nH]nc(-c3cc(N4CCC(n5ccnc5)C4)ncn3)c2c1 (centres unmarked) [Example K11] ; what pIC50 value has been reported?
7.95

Suppose we examine the compound c1cnc(-c2ccc3[nH]nc(-c4cc(N5CCOCC5)ncn4)c3c2)cn1 [Example I1] ; what pIC50 value has been reported?
7.46

Suppose we examine the compound COC[C@H](C)Oc1ccc2[nH]nc(-c3cc(N4CC[C@@H](OC)C4)ncn3)c2c1 [Example H12] ; what pIC50 value has been reported?
8.32

Suppose we examine the compound CCOc1ccc2[nH]nc(-c3cc(N4CCO[C@H](C)C4)ncn3)c2c1 [Example F12] ; what pIC50 value has been reported?
7.98

Suppose we examine the compound CC(C)Oc1cc2c(-c3cc(N4CCN(S(C)(=O)=O)CC4)ncn3)n[nH]c2cc1F [Example D24] ; what pIC50 value has been reported?
8.51
